Data provenance: ChEMBL document CHEMBL3525972

Assay: Oral bioavailability in human
Assay type: ADME, organism-based
Settings: in vivo
measure: bioavailability (%)

* CN1CCC(Nc2ncc3ncnc(Nc4ccc(F)c(Cl)c4)c3n2)CC1 [FALNIDAMOL] | 2

* * *

The compounds listed here are annotated with their clearance.
Experiment: clinical
Conditions: human, in vivo
measure: clearance (mL/min/kg)

- Nc1nc(OCc2ccccc2)c2[nH]cnc2n1 [6-O-BENZYLGUANINE]: 15.6
- CN1CCC(Nc2ncc3ncnc(Nc4ccc(F)c(Cl)c4)c3n2)CC1 [FALNIDAMOL]: 25
- CCN(C(C)=O)c1cccc(-c2ccnc3c(C#N)cnn23)c1 [ZALEPLON]: 15.7
